Catalogue of GI50 values
- System: PC-3 prostate
- method description: NCI tumour cell line growth inhibition, 48 h

Q: Report GI50 for Nc1nc(Cl)nc2c1ncn2C1O[C@H](CO)[C@@H](O)[C@@H]1F (some centres not stated)
Result: > 24.6 µM

Q: Report GI50 for O=C1NC(=NCCc2ccccc2Cl)S/C1=C\c1ccc2ncccc2c1
Result: 6.26 µM

Q: Report GI50 for CN(C)CCn1cc(-c2ccc3c(Nc4ccc(CC(=O)Nc5cccc(F)c5)cc4)ncnc3c2)cn1
Result: 1.75 µM

Q: Report GI50 for Cc1cc(S(N)(=O)=O)c(S/C(=N\NS(=O)(=O)c2ccc(Cl)cc2)c2ccc(Cl)cc2)cc1Cl
Result: 56.8 µM

Q: Report GI50 for CNCCNc1nc2ccccc2c2c(=O)c3cccc(OC)c3sc12
Result: 1.24 µM

Q: Report GI50 for Cc1ccccc1NC(=O)NC(CC(N)=O)c1ccc2c(c1)nc(-c1cccc(Oc3ccc(C(C)(C)C)cc3)c1)n2CCCN1CCCCC1C (configuration not stated)
Result: 3.94 µM

Q: Report GI50 for CCN1C(=O)N(c2c(F)c(OC)cc(OC)c2F)Cc2cnc3[nH]c(CN4CCOCC4)cc3c21
Result: 4.34 µM

Q: Report GI50 for Fc1ccc(Nc2nc(Nc3ccc(-c4nc5ccccc5[nH]4)cc3)nc(N3CCCC3)n2)cc1
Result: 2.74 µM

Q: Report GI50 for Oc1ccc2ccccc2c1/C=N\Nc1ccccn1
Result: 0.933 µM

Q: Report GI50 for Cn1c(=O)c(Cc2ccc(F)cc2F)cc2cnc(NC3CCOCC3)nc21
Result: > 25 µM

Others:
Q: Report GI50 for COC(=O)c1oc2c(C(=O)/C=C/c3ccc(OC)cc3)c(OCCCN3CCCCC3)ccc2c1C
Result: 2.39 µM

Q: Report GI50 for Cc1ccc(Cl)cc1Nc1nc(C(F)(F)F)ccc1C(=O)Oc1ccc(Cl)cc1
Result: 5.85 µM
